tested_system: T1, human IL-33 (R&D Systems, #3625-IL-010/CF) (human) (UniProt O95760)
T1 sequence (looked up): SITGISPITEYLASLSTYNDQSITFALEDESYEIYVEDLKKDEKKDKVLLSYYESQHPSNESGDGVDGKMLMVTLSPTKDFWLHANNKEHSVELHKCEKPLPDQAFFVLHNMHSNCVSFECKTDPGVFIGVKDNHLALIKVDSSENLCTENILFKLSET
parameter: Ph-p38 MFI at 2 nM Ab (500 pM human IL-33, primary basophils) (MFI)
Respond with the bare value in MFI.

[Q] I'd like to know its Ph-p38 MFI at 2 nM Ab (500 pM human IL-33, primary basophils). The binder in question is H4H9666P (antibody, from another filing, IgG4, V domains shown) VH: QVQLVQSGAEVKKPGASVKVSCKASGYTFTSYGISWVRQAPGQGLEWMGWIRAYNGYTNYAQKFQGRVTMTTDTSTNTAYMELRTLNSDDTAVYYCARDRYSGSFHGNFDYWGQGTLVTVSS VL: DIQMTQSPSSVSASVGDRVTITCRASQGIFSWLAWYQQKPGKAPKVLIYAASNLESGVPSRFSGSGSGTDFTLTISSLQPEDFATYYCQQANSLPLTFGGGTKVEIK
[A] 71

[Q] I'd like to know its Ph-p38 MFI at 2 nM Ab (500 pM human IL-33, primary basophils). The binder in question is H4H9672P (antibody, from another filing, IgG4, V domains shown) VH: EVQLVESGGGLVQPGGSLRLSCAASGFTLRSYVMYWVRQGPGKGLEGVSGISGSSGGTYYTDSVKGRFTISRDNSKNTLFLQMNSLRAEDTAVYFCARSVYSTTWYGGFQHWGQGTLVTVSS VL: DIQMTQSPSSVSVSVGDRVTITCRASQVISSWLAWYQLKPGKAPKLLIYAASSLQSGVPSRFSGSGSGTDFTLTISGLQPEDFAVYYCQQTNSFPLTFGGGTKVEIK
[A] 61

[Q] I'd like to know its Ph-p38 MFI at 2 nM Ab (500 pM human IL-33, primary basophils). The binder in question is H4H9665P (antibody, from another filing, IgG4, V domains shown) VH: EVQLVESGGGLVQPGGSLRLSCAASGFTFSNYAMTWVRQAPGKGLEWVSTISGSGDNTYYADSVQGRFTISRGHSKNTLYLQMNSLRAEDTAVYYCAKPTYSRSWYGAFDFWGQGTMVTVSS VL: DIQMTQSPSSVSASVGDRVTITCRASQGISSWLAWYQQKPGKAPQLLIYAASRLQSGVPSRFWGSGSGTDFTLTISSLQPEDFATYYCQQANNFPFTFGPGTKVDIK
[A] 105

[Q] I'd like to know its Ph-p38 MFI at 2 nM Ab (500 pM human IL-33, primary basophils). The binder in question is H4H9676P (antibody, from another filing, IgG4, V domains shown) VH: EVQLVESGGGLVQPGGSLRLSCSASGFTFSSYAMNWVRQAPGKGLEWVTAISGSGGGTYYADSVKGRFTISRDNSKNSLFLQLNSLRAEDTAVYYCAKQTYTSSWYGGFDIWGQGTMVTVSS VL: DIQMTQSPSSVSASVGDRVTITCRASQGFSSWLAWYQQIPGKAPKLLIYAASRLQSGVPSRFRGSGSGTDFTLTISSLQPEDFATYYCQQANSFPLTFGGGTKVEIK
[A] 61

[Q] I'd like to know its Ph-p38 MFI at 2 nM Ab (500 pM human IL-33, primary basophils). The binder in question is H4H9670P (antibody, from another filing, IgG4, V domains shown) VH: EVQLVESGGGLVQPGGSLRLSCAASGFTLSSYAMSWVRQAPGKGLEWVSAISGSGGSTYYADSVKGRFTISRDNSKNSLYLQLNSLRAEDTAVYYCAKTLYTTSWYGGFQHWGQGTLVTVSS VL: DIQMTQSPSSVSASIGDRVTITCRASQGISSWLAWYQQKPGKVPKLLIYAASSLQSGFPSRFSGSGSGTDFTLTISSLQPEDFATYYCQQTHSFPWTVGQGTKVEIK
[A] 90
